tested on: MOLT-4; test: NCI 60-cell line growth inhibition assay; format: cell-based; details: Homo sapiens; MOLT-4 (Leukemia)
measure: GI50 (nM)
Answer with a number only, understood to be in nM.

IN: Record request: GI50 value, item `CC[C@H](CO)Nc1nc(NCc2ccc(-c3cccc([N+](=O)[O-])c3)cc2)c2ncn(C(C)C)c2n1`
OUT: 50

IN: Record request: GI50 value, item `CC(=O)N[C@H]1CC[C@H](Nc2nc(NCc3ccc(-c4ccccc4)nc3)c3ncn(C(C)C)c3n2)CC1`
OUT: 20

IN: Record request: GI50 value, item Cn1cnc2c(NCc3ccccc3)nc(NCCO)nc21 [Olomoucine, reference compound]
OUT: 63000

IN: Record request: GI50 value, item `CC[C@H](CO)Nc1nc(NCc2ccc(-c3ccc(OC)cc3)cc2)c2ncn(C(C)C)c2n1`
OUT: 2000

* * *

test system: M14; test: NCI 60-cell line growth inhibition assay; type: cell-based; conditions: Homo sapiens; Melanoma, M14
measure: GI50 (nM)
Answer with a number only, understood to be in nM.

IN: Record request: GI50 value, item CC[C@H](CO)Nc1nc(NCc2ccc(-c3cccc(C(F)(F)F)c3)cc2)c2ncn(C(C)C)c2n1 [Compound 38]
OUT: 50

IN: Record request: GI50 value, item C=Cc1ccc(-c2ccc(CNc3nc(N[C@H](CC)CO)nc4c3ncn4C(C)C)cc2)cc1 [Compound 33]
OUT: 7800

IN: Record request: GI50 value, item CC[C@H](CO)Nc1nc(NCc2ccc(-c3ccccn3)cc2)c2ncn(C(C)C)c2n1 [Compound 17]
OUT: 30

IN: Record request: GI50 value, item CC[C@H](CO)Nc1nc(NCc2ccc(-c3ccccc3)cc2)c2ncn(C(C)C)c2n1 [Compound 73]
OUT: 30

* * *

What GI50 was measured for each of the following?
tested on: HCC-2998; assay: NCI 60-cell line growth inhibition assay; format: cell-based; conditions: Homo sapiens; HCC-2998 (Colon)

IN: Record request: GI50 value, item `CC(C)n1cnc2c(NCc3ccc(-c4ccsc4)cc3)nc(N[C@H]3CC[C@H](N)CC3)nc21`
OUT: < 5 nM

IN: Record request: GI50 value, item Cn1cnc2c(NCc3ccccc3)nc(NCCO)nc21 [Olomoucine, reference compound]
OUT: 63000 nM

IN: Record request: GI50 value, item `CC(C)n1cnc2c(NCc3ccc(-c4ccccn4)cc3)nc(N[C@H]3CC[C@H](N)CC3)nc21`
OUT: < 10 nM

IN: Record request: GI50 value, item `CC[C@H](CO)Nc1nc(NCc2ccc(-c3ccc(OC)cc3)cc2)c2ncn(C(C)C)c2n1`
OUT: 3400 nM

IN: Record request: GI50 value, item `CC(=O)N[C@H]1CC[C@H](Nc2nc(NCc3ccc(-c4ccccc4)nc3)c3ncn(C(C)C)c3n2)CC1`
OUT: < 10 nM

IN: Record request: GI50 value, item `CC(=O)N[C@H]1CC[C@H](Nc2nc(NCc3ccc(-c4ccccn4)cc3)c3ncn(C(C)C)c3n2)CC1`
OUT: < 10 nM

* * *

test system: SN12C; experiment: NCI 60-cell line growth inhibition assay; assay type: cell-based; conditions: Homo sapiens; SN12C (Renal)
What GI50 was measured for each of the following?

IN: What GI50 appears in the records for this compound with SN12C? `CC(=O)N[C@H]1CC[C@H](Nc2nc(NCc3ccc(-c4ccccc4)nc3)c3ncn(C(C)C)c3n2)CC1`
OUT: < 10 nM

IN: What GI50 appears in the records for this compound with SN12C? Cn1cnc2c(NCc3ccccc3)nc(NCCO)nc21 [Olomoucine, reference compound]
OUT: 100000 nM

IN: What GI50 appears in the records for this compound with SN12C? `CC[C@H](CO)Nc1nc(NCc2ccc(-c3cccc([N+](=O)[O-])c3)cc2)c2ncn(C(C)C)c2n1`
OUT: 30 nM

IN: What GI50 appears in the records for this compound with SN12C? `CC(=O)N[C@H]1CC[C@H](Nc2nc(NCc3ccc(-c4ccccn4)cc3)c3ncn(C(C)C)c3n2)CC1`
OUT: < 10 nM

IN: What GI50 appears in the records for this compound with SN12C? `CC(C)n1cnc2c(NCc3ccc(-c4ccsc4)cc3)nc(N[C@H]3CC[C@H](N)CC3)nc21`
OUT: < 5 nM

IN: What GI50 appears in the records for this compound with SN12C? `CC(C)n1cnc2c(NCc3ccc(-c4ccccn4)cc3)nc(N[C@H]3CC[C@H](N)CC3)nc21`
OUT: < 10 nM

* * *

tested on: HCT-15; test: NCI 60-cell line growth inhibition assay; type: cell-based; conditions: Homo sapiens; Colon, HCT-15
What GI50 was measured for each of the following?
Answer with a number only, understood to be in nM.

IN: Record request: GI50 value, item `CC[C@H](CO)Nc1nc(NCc2ccc(-c3ccccn3)cc2)c2ncn(C(C)C)c2n1`
OUT: 40

IN: Record request: GI50 value, item `CC[C@H](CO)Nc1nc(NCc2ccc(-c3ccccc3)cc2)c2ncn(C(C)C)c2n1`
OUT: 180

IN: Record request: GI50 value, item `C=Cc1ccc(-c2ccc(CNc3nc(N[C@H](CC)CO)nc4c3ncn4C(C)C)cc2)cc1`
OUT: 8900

IN: Record request: GI50 value, item `CC[C@H](CO)Nc1nc(NCc2ccc(-c3cccc(C(F)(F)F)c3)cc2)c2ncn(C(C)C)c2n1`
OUT: 250

* * *

What GI50 was measured for each of the following?
test system: SF-295; assay: NCI 60-cell line growth inhibition assay; assay type: cell-based; details: Homo sapiens; CNS, SF-295

IN: Record request: GI50 value, item `CC[C@H](CO)Nc1nc(NCc2ccc(-c3ccccn3)cc2)c2ncn(C(C)C)c2n1`
OUT: 190 nM

IN: Record request: GI50 value, item `C=Cc1ccc(-c2ccc(CNc3nc(N[C@H](CC)CO)nc4c3ncn4C(C)C)cc2)cc1`
OUT: 7800 nM

IN: Record request: GI50 value, item `CC[C@H](CO)Nc1nc(NCc2ccc(-c3cccc(C(F)(F)F)c3)cc2)c2ncn(C(C)C)c2n1`
OUT: 500 nM

IN: Record request: GI50 value, item `CC[C@H](CO)Nc1nc(NCc2ccc(-c3ccccc3)cc2)c2ncn(C(C)C)c2n1`
OUT: 250 nM

* * *

tested on: HeLa S-3 cells; test: Inhibition of cell growth of HeLa cells (SRB); type: cell-based, human; conditions: 2 days of treatment, replicate experiments
What GI50 was measured for each of the following?
Answer with a number only, understood to be in nM.

IN: Record request: GI50 value, item CC(=O)N[C@H]1CC[C@H](Nc2nc(NCc3ccc(-c4cccc(C)c4)cc3)c3ncn(C(C)C)c3n2)CC1 [Compound 178]
OUT: 200

IN: Record request: GI50 value, item CC(C)n1cnc2c(NCc3ccc(-c4cccc(F)c4)nc3)nc(N[C@H]3CC[C@H](N)CC3)nc21 [Compound 187]
OUT: 30

IN: Record request: GI50 value, item CC(=O)N[C@H]1CC[C@H](Nc2nc(NCc3ccc(-c4cccs4)nc3)c3ncn(C(C)C)c3n2)CC1 [Compound 200]
OUT: 200

IN: Record request: GI50 value, item CC(=O)N[C@H]1CC[C@H](Nc2nc(NCc3ccc(-c4ccco4)nc3)c3ncn(C(C)C)c3n2)CC1 [Compound 206]
OUT: 200

IN: Record request: GI50 value, item COc1ccc(OC)c(-c2ccc(CNc3nc(N[C@H]4CC[C@H](NC(C)=O)CC4)nc4c3ncn4C(C)C)cc2)c1 [Compound 154]
OUT: 900

IN: Record request: GI50 value, item CC(=O)N[C@H]1CC[C@H](Nc2nc(NCCc3ccc(-c4ccccc4)cc3)c3ncn(C(C)C)c3n2)CC1 [Compound 240]
OUT: 8000

* * *

Biological target: CyclinB/cdk1 (Homo sapiens)
Construct: Monoclonal antibody against cyclinB (GNS1) is added to the supernatant; endogenous in cells
Sequence (P06493 whole entry): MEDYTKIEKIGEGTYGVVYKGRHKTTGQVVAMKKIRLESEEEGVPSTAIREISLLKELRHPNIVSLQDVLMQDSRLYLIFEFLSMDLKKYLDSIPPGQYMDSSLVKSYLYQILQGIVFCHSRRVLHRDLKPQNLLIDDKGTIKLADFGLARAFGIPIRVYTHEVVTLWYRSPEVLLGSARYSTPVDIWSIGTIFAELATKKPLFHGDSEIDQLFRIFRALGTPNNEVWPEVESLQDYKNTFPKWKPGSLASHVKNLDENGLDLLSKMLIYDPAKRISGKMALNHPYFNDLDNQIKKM
Sequence (P14635 whole entry partner): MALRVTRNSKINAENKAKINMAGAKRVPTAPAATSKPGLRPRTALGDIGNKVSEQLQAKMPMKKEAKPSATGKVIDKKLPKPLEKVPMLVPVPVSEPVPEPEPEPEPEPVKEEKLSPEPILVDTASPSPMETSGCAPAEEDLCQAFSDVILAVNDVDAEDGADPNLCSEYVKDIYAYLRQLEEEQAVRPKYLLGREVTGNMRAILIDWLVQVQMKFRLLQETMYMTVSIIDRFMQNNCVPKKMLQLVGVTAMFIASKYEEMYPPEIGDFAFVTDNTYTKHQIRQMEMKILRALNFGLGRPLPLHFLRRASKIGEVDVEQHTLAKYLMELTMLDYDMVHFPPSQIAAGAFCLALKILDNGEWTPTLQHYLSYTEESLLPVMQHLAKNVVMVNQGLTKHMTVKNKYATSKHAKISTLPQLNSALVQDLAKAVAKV
Test: CyclinB/cdk1 protein kinase assay (histone H1 phosphorylation)
Details: complex immunopurified from HeLa cells; 15 μM ATP; replicate experiments
Experimental: HeLa cells are blocked at the G1/S border by culturing in the presence of 2 mM thymidine for 20 h. The cells are then rinsed 3×in phosphate buffered saline and resuspended in regular medium. After 4 h of culture, the mitotic blocker, nocodazole is added to a final concentration of 75 ng/ml. […] The lysate is then clarified by centrifugation at 10,000×g for 10 min. The supernatant is collected and diluted 1:5 with Lysis Buffer. […]
What log10(IC50) was measured for each of the following?
Transform log10 | Measure IC50 | Unit µM

IN: What log10(IC50) appears in the records for this compound with CyclinB/cdk1 (Homo sapiens)? `CC(C)n1cnc2c(NCc3ccc(-c4ccccn4)cc3)nc(N[C@H]3CC[C@H](N)CC3)nc21`
OUT: -0.10

IN: What log10(IC50) appears in the records for this compound with CyclinB/cdk1 (Homo sapiens)? `CC(C)n1cnc2c(NCc3ccc(-c4ccsc4)cc3)nc(N[C@H]3CC[C@H](N)CC3)nc21`
OUT: 0.48

IN: What log10(IC50) appears in the records for this compound with CyclinB/cdk1 (Homo sapiens)? `CC(=O)N[C@H]1CC[C@H](Nc2nc(NCc3ccc(-c4cccc(F)c4)cc3)c3ncn(C(C)C)c3n2)CC1`
OUT: 0.78

IN: What log10(IC50) appears in the records for this compound with CyclinB/cdk1 (Homo sapiens)? `CC(=O)N[C@H]1CC[C@H](Nc2nc(NCc3ccc(-c4ccccn4)cc3)c3ncn(C(C)C)c3n2)CC1`
OUT: 0.48

IN: What log10(IC50) appears in the records for this compound with CyclinB/cdk1 (Homo sapiens)? CCn1cnc2c(Nc3cccc(Cl)c3)nc(N[C@H]3CCCC[C@H]3N)nc21 [Compound 125, reference compound]
OUT: -0.22

IN: What log10(IC50) appears in the records for this compound with CyclinB/cdk1 (Homo sapiens)? `CC[C@H](CO)Nc1nc(NCc2ccc(-c3cccc(NC(C)=O)c3)cc2)c2ncn(C(C)C)c2n1`
OUT: 0.85

IN: What log10(IC50) appears in the records for this compound with CyclinB/cdk1 (Homo sapiens)? `CC(C)n1cnc2c(NCc3ccc(-c4ccccc4)nc3)nc(N[C@H]3CC[C@H](N)CC3)nc21`
OUT: 0.30

IN: What log10(IC50) appears in the records for this compound with CyclinB/cdk1 (Homo sapiens)? `CC(=O)N[C@H]1CC[C@H](Nc2nc(NCc3ccc(-c4cccnc4)cc3)c3ncn(C(C)C)c3n2)CC1`
OUT: 0.30

IN: What log10(IC50) appears in the records for this compound with CyclinB/cdk1 (Homo sapiens)? `CC(C)n1cnc2c(NCc3ccc(-c4ccc(F)c(Cl)c4)cc3)nc(N[C@H]3CC[C@H](N)CC3)nc21`
OUT: 0.85

IN: What log10(IC50) appears in the records for this compound with CyclinB/cdk1 (Homo sapiens)? `CC(=O)N[C@H]1CC[C@H](Nc2nc(NCc3ccc(-c4ccccc4)cc3)c3ncn(C(C)C)c3n2)CC1`
OUT: 0.78

IN: What log10(IC50) appears in the records for this compound with CyclinB/cdk1 (Homo sapiens)? `CC(C)n1cnc2c(NCc3ccc(-c4ccc(F)cc4)cc3)nc(N[C@H]3CC[C@H](N)CC3)nc21`
OUT: 0.60
